A collection of compounds and their measured DC50
Target: KRAS G12V (Homo sapiens (Human), UniProt P01116, G12V)
Sequence (P01116-2 other isoform, or with tags, fused parts or gaps G12V): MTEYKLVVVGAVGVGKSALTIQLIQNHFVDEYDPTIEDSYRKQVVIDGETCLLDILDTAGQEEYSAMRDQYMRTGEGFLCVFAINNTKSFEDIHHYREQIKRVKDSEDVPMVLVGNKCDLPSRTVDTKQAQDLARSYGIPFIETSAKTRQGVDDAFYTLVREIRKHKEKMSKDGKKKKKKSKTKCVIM
Assay: KRAS G12V degradation in SW620 cells (Western blot, DC50)
Format: cell-based
Settings: 24 hours

Below, each entry is followed by its recorded DC50 result.
>  <COMPOUND>
CCc1c(F)ccc2cc(O)cc(-c3ncc4c(N5CCC[C@@](C)(O)C5)nc(OCC5(CN6CCC(C#N)(CN7CCN(c8ccc9c(c8)CN([C@H]8CCC(=O)NC8=O)C9=O)CC7)CC6)CC5)nc4c3F)c12 [Compound 20]

>  <DC50>
> 100 nM

$$$$
>  <COMPOUND>
CCc1c(F)ccc2cc(N)cc(-c3ncc4c(N5CCC[C@@](C)(O)C5)nc(OCC5(CN6CCC7(CC6)CC(CN6CCN(c8ccc9c(c8)CN([C@H]8CCC(=O)NC8=O)C9=O)CC6)C7)CC5)nc4c3F)c12 [Compound 88]

>  <DC50>
> 100 nM

$$$$
>  <COMPOUND>
CCc1c(F)ccc2cc(O)cc(-c3ncc4c(N5CCC[C@]6(C5)C[C@H](O)C6)nc(OCC5(CN6CCC7(CC6)CC(CN6CCN(c8ccc9c(c8)CN([C@H]8CCC(=O)NC8=O)C9=O)CC6)C7)CC5)nc4c3F)c12 [Compound 99]

>  <DC50>
> 100 nM

$$$$
>  <COMPOUND>
CCc1c(F)ccc2cc(O)cc(-c3ncc4c(N5CCCC6(CCO6)C5)nc(OCC5(CN6CCC(CN7CC(N8CCN(c9ccc%10c(c9)CN([C@H]9CCC(=O)NC9=O)C%10=O)CC8)C7)CC6)CC5)nc4c3F)c12 (stereo partly drawn) [Compound 37]

>  <DC50>
1 to 10 nM

$$$$
>  <COMPOUND>
CCc1c(F)ccc2cc(O)cc(-c3ncc4c(N5CCCOC6CC65)nc(OCC5(CN6CCC(CN7CCN(c8ccc9c(c8)CN([C@H]8CCC(=O)NC8=O)C9=O)CC7)CC6)CC5)nc4c3F)c12 (stereo partly drawn) [Compound 160]

>  <DC50>
> 100 nM

$$$$

DC50 reported for this compound CCc1c(F)ccc2cc(O)cc(-c3ncc4c(N5CCC[C@@](C)(O)C5)nc(OCC5(CN6CC7(CCC(N8CCN(c9ccc%10c(c9)CN([C@H]9CCC(=O)NC9=O)C%10=O)CC8)CC7)C6)CC5)nc4c3F)c12 [Compound 136] : < 1 nM

DC50 reported for this compound CCc1c(F)ccc2cc(O)cc(-c3ncc4c(N5CCC[C@@](C)(O)C5)nc(OCC5(CN6CCC7(CC6)CC(OC6CCN(c8ccc9c(c8)CN(C8CCC(=O)NC8=O)C9=O)CC6)C7)CC5)nc4c3F)c12 (stereo partly drawn) [Compound 176] : < 1 nM

DC50 reported for this compound CCc1c(F)ccc2cc(O)cc(-c3ncc4c(N5CCOC[C@@](C)(O)C5)nc(OCC5(CN6CCC7(CC6)CC(CN6CCN(c8ccc9c(c8)CN([C@H]8CCC(=O)NC8=O)C9=O)CC6)C7)CC5)nc4c3F)c12 [Compound 105] : > 100 nM

====

Biological target: KRAS G12V (Homo sapiens (Human), UniProt P01116, G12V)
Experiment: KRAS G12V degradation in SW620 cells (Western blot, DC50)
Type: cell-based
Details: 24 hours
EXPERIMENTAL_READOUT: DC50

DC50 reported for this compound CCc1c(F)ccc2cc(O)cc(-c3ncc4c(N5CCCC(C)(O)C5)nc(OCC5(CN6CCC7(CC6)CCC(C)(N6CCN(c8ccc9c(c8)CN(C8CCC(=O)NC8=O)C9=O)CC6)CC7)CC5)nc4c3F)c12 (stereo in doubt) [Compound 167] : 1 to 10 nM

DC50 reported for this compound CCc1c(F)ccc2cc(O)cc(-c3ncc4c(NCC5(N(C)C)CCC5)nc(OCC5(CN6CCC7(CC6)CC(CN6CCN(c8ccc9c(c8)CN([C@H]8CCC(=O)NC8=O)C9=O)CC6)C7)CC5)nc4c3F)c12 [Compound 3] : > 100 nM

====

Molecular target: KRAS-G12V/RAF1 (Homo sapiens (Human), UniProt P01116, G12V)
Sequence (P01116-2 other isoform, or with tags, fused parts or gaps G12V): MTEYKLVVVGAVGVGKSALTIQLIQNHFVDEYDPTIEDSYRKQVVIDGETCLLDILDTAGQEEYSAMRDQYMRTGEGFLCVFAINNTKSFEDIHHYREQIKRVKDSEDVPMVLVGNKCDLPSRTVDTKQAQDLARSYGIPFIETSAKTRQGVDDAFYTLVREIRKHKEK
Test: KRAS/RAF1 binding inhibition assay (AlphaScreen)
pIC50: −log10 of the molar value.
EXPERIMENTAL_READOUT: pIC50

Below, each entry is followed by its recorded pIC50 result.
>  <COMPOUND>
CCc1c(F)ccc2cc(O)cc(-c3ncc4c(N5CCC[C@]6(CCO6)C5)nc(OCC5(CN6CCC(CN7CCN(c8cc(F)c(C9CCC(=O)NC9=O)c(F)c8)CC7)CC6)CC5)nc4c3F)c12 (stereo partly drawn)

>  <pIC50>
< 6.70

$$$$
>  <COMPOUND>
CCc1c(F)ccc2cc(O)cc(-c3ncc4c(N5CCCC6(CCO6)C5)nc(OCC5(CN6CCC(CN7CCN(c8ccc9c(c8)CN([C@H]8CCC(=O)NC8=O)C9=O)CC7)CC6)CC5)nc4c3F)c12 (stereo partly drawn)

>  <pIC50>
6.70 to 7.70

$$$$

// below: pIC50 requested for another compound
pIC50 reported for this compound "C[C@@]1(O)CCCN(c2nc(OCC3(CN4CCC(CN5CCN(c6ccc7c(c6)CN([C@H]6CCC(=O)NC6=O)C7=O)CC5)CC4)CC3)nc3c(F)c(-c4cc(O)cc5cccc(Cl)c45)ncc23)C1" : 6.70 to 7.70

====

A collection of compounds and their measured DC50
Target: KRAS G12V (Homo sapiens (Human), UniProt P01116, G12V)
Assay: KRAS G12V degradation in SW620 cells (Western blot, DC50)
Assay type: cell-based
Conditions: 24 hours

Below, each entry is followed by its recorded DC50 result.
>  <COMPOUND>
C[C@@]1(O)CCCN(c2nc(OCC3(CN4CC5(CCC(F)(CN6CCN(c7ccc8c(c7)CN([C@H]7CCC(=O)NC7=O)C8=O)CC6)CC5)C4)CC3)nc3c(F)c(-c4cc(O)cc5ccc(F)c(F)c45)ncc23)C1 [Compound 177]

>  <TESTED_TARGET>
KRAS G12V (Homo sapiens (Human), UniProt P01116, G12V)

>  <DC50>
> 100 nM

$$$$
>  <COMPOUND>
CCc1c(F)ccc2cc(O)cc(-c3ncc4c(N5CCC[C@@](C)(O)C5)nc(OCC5(CN6CCC(F)(CN7CCC(N8CCN(c9ccc%10c(c9)CN([C@H]9CCC(=O)NC9=O)C%10=O)CC8)CC7)CC6)CC5)nc4c3F)c12 [Compound 72]

>  <TESTED_TARGET>
KRAS G12V (Homo sapiens (Human), UniProt P01116, G12V)

>  <DC50>
< 1 nM

$$$$
>  <COMPOUND>
CCc1c(F)ccc2cc(O)cc(-c3ncc4c(N5CCCC(C)(F)C5)nc(OCC5(CN6CCC7(CC6)CC(CN6CCN(c8ccc9c(c8)CN([C@H]8CCC(=O)NC8=O)C9=O)CC6)C7)CC5)nc4c3F)c12 (stereo partly drawn) [Compound 132]

>  <TESTED_TARGET>
KRAS G12V (Homo sapiens (Human), UniProt P01116, G12V)

>  <DC50>
> 100 nM

$$$$
>  <COMPOUND>
CCc1c(F)ccc2cc(O)cc(-c3ncc4c(N5CCC[C@@](C)(O)C5)nc(OCC5(CN6CCC(C)(CN7CCC(N8CCN(c9ccc%10c(c9)CN([C@H]9CCC(=O)NC9=O)C%10=O)CC8)CC7)CC6)CC5)nc4c3F)c12 [Compound 213]

>  <TESTED_TARGET>
KRAS G12V (Homo sapiens (Human), UniProt P01116, G12V)

>  <DC50>
< 1 nM

$$$$
>  <COMPOUND>
CCc1c(F)ccc2cc(O)cc(-c3ncc4c(N5CCC[C@@](C)(O)C5)nc(OCC5(CN6CCC7(CC6)CC(N6CCN(c8ccc9c(c8)CN([C@H]8CCC(=O)NC8=O)C9=O)CC6)C7)CC5)nc4c3F)c12 [Compound 121]

>  <TESTED_TARGET>
KRAS G12V (Homo sapiens (Human), UniProt P01116, G12V)

>  <DC50>
< 1 nM

$$$$

DC50 reported for this compound CCc1c(F)ccc2cc(O)cc(-c3ncc4c(N5CCC[C@@](C)(O)C5)nc(OCC5(CN6CC7(CCC(CN8CCN(c9ccc%10c(c9)CN([C@H]9CCC(=O)NC9=O)C%10=O)CC8)CC7)C6)CC5)nc4c3F)c12 [Compound 126] : 1 to 10 nM

DC50 reported for this compound CCc1cccc2cc(O)cc(-c3ncc4c(N(C)[C@@H]5C[C@H]5F)nc(OCC5(CN6CCC7(CC6)CC(CN6CCN(c8ccc9c(c8)CN([C@H]8CCC(=O)NC8=O)C9=O)CC6)C7)CC5)nc4c3F)c12 [Compound 27] : 1 to 10 nM

DC50 reported for this compound CCc1c(F)ccc2cc(O)cc(-c3ncc4c(N5CCC[C@@](C)(O)C5)nc(OCC5(CN6CCC7(CC6)CC(CN6Cc8ccc(C9CCC(=O)NC9=O)cc8C6)C7)CC5)nc4c3F)c12 (stereo partly drawn) [Compound 34] : > 100 nM

DC50 reported for this compound CCc1c(F)ccc2cc(O)cc(-c3ncc4c(N5CCC[C@@](C)(O)C5)nc(OCC5(CN6CCC(N7CC8(CCN(c9cc(F)c(C%10CCC(=O)NC%10=O)c(F)c9)CC8)C7)CC6)CC5)nc4c3F)c12 (stereo partly drawn) [Compound 57] : 1 to 10 nM

Data provenance is patent US20250092039A1.
